Target: histidine-tagged recombinant human TrkA, cytoplasmic domain (Homo sapiens (Human), UniProt P04629)
Sequence (P04629 440-796): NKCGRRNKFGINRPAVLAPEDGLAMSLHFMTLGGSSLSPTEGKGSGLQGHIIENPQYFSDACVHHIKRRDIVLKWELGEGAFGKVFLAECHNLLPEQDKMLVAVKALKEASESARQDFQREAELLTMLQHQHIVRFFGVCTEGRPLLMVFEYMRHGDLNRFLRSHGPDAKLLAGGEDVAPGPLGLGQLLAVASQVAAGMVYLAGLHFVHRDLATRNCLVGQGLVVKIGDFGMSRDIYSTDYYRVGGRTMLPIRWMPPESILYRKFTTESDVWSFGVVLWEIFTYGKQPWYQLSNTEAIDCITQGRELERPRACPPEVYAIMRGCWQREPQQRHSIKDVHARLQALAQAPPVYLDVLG
Assay: TrkA ELISA Assay
Conditions: 2.5 nM TrkA, 500 μM ATP, 25 minutes; read-out: TrkA Elisa Enzyme IC50
pIC50: −log10 of the molar value.
MEASURE: pIC50

a: CC(C)C(=O)Nc1cnn2ccc(N3CCC[C@@H]3c3cc(F)ccc3F)nc12
b: Cc1cccnc1C(=O)Nc1cnn2ccc(N3CCC[C@@H]3c3cccc(F)c3)nc12
c: O=C(Nc1cnn2ccc(N3CCC[C@@H]3c3cncc(F)c3)nc12)N1CC[C@@H](O)C1
d: CN(C)C(=O)C(=O)Nc1cnn2ccc(N3CCC[C@@H]3c3cc(F)ccc3F)nc12
e: O=C(O)C1(C(=O)Nc2cnn3ccc(N4CCC[C@@H]4c4cc(F)ccc4F)nc23)CC1
Order these compounds (above) by their pIC50, from the smallest value upward. # respond with the labels, arranged in the requested order
c, e, d, a, b
(c: 6.05, e: 7.01, d: 7.32, a: 7.92, b: 8.21)
